- Tested on: P. aeruginosa ATCC BAA-3107 (SEN) and P. aeruginosa LESB58 (MDR)
- measurementNotes: Adaptive laboratory evolution (ALE), relative MIC of evolved lines
- Assay type: cell-based, Pseudomonas aeruginosa
- conditionLabel: PA-SEN (ATCC BAA 3107); evolved line 9
Where a SMILES comes first, the peptide text is derived from it. Bridges are numbered along the chain shown (N, C = ends). [ ]: non-standard residue; d: D form. The star is where a group is joined. X1 = NC[C@@H](CC(=O)*)c1cccc(Cl)c1; Dab = NCC[C@H](N)C(=O)O; Dap = NC[C@H](N)C(=O)O
readoutLabel: MIC of evolved line (µg/mL)
Report the value in µg/mL with no unit label.

GET /values?item= "Nc1nc(-n2cc(C(=O)O)c(=O)c3cc(F)c(N4CC(O)C4)c(Cl)c32)c(F)cc1F" &system= P. aeruginosa ATCC BAA-3107 (SEN) and P. aeruginosa LESB58 (MDR) returns MIC of evolved line: 32

MIC of evolved line on P. aeruginosa ATCC BAA-3107 (SEN) and P. aeruginosa LESB58 (MDR) for CC(C)C[C@@H]1NC(=O)[C@@H](Cc2ccccc2)NC(=O)[C@H](CCN)NC(=O)[C@@H](NC(=O)[C@H](CN)NC(=O)[C@@H](NC(=O)C[C@H](CN)c2cccc(Cl)c2)[C@@H](C)O)CCNC(=O)[C@H]([C@@H](C)O)NC(=O)[C@H](CCN)NC(=O)[C@H](CCN)NC1=O [SPR206] (X1-T[Dap][Dab][Dab][dF]L[Dab][Dab]T; lactam 3-C (inferred); N-terminus assumed) is 32

Form field MIC of evolved line for item "C[C@H]1c2cccc(O)c2C(=O)C2=C(O)[C@]3(O)C(=O)C(C(N)=O)=C(O)[C@@H](N(C)C)[C@@H]3[C@@H](O)[C@@H]21" on P. aeruginosa ATCC BAA-3107 (SEN) and P. aeruginosa LESB58 (MDR): 256

Record "COc1c(N2C[C@@H]3CCCN[C@@H]3C2)c(F)cc2c(=O)c(C(=O)O)cn(C3CC3)c12" has P. aeruginosa ATCC BAA-3107 (SEN) and P. aeruginosa LESB58 (MDR) MIC of evolved line equal to 256

====

- System: E. coli ATCC 25922 (SEN) and E. coli NCTC13846 (MDR)
- measurementNotes: Adaptive laboratory evolution (ALE), relative MIC of evolved lines
- Format: cell-based, Escherichia coli
- conditionLabel: Escherichia coli NCTC 13846 (EC-MDR), evolved line 7
Where a SMILES comes first, the peptide text is derived from it. Bridges are numbered along the chain shown (N, C = ends). [ ]: non-standard residue; d: D form. The star is where a group is joined. X1 = NC[C@@H](CC(=O)*)c1cccc(Cl)c1; Dab = NCC[C@H](N)C(=O)O; Dap = NC[C@H](N)C(=O)O
Would you kindly list Relative MIC for each of these compounds?
Just the number, please, no unit attached.

Input CNC(C)C1CCC(N)C(OC2C(N)CC(N)C(OC3OCC(C)(O)C(NC)C3O)C2O)O1 (stereo not shown) . Output Relative MIC: 32

// sample CC(C)C[C@@H]1NC(=O)[C@@H](Cc2ccccc2)NC(=O)[C@H](CCN)NC(=O)[C@@H](NC(=O)[C@H](CN)NC(=O)[C@@H](NC(=O)C[C@H](CN)c2cccc(Cl)c2)[C@@H](C)O)CCNC(=O)[C@H]([C@@H](C)O)NC(=O)[C@H](CCN)NC(=O)[C@H](CCN)NC1=O [SPR206] (X1-T[Dap][Dab][Dab][dF]L[Dab][Dab]T; lactam 3-C (inferred); N-terminus assumed) , its Relative MIC was 8

Field Relative MIC (entry "C[C@@H](O)[C@H]1C(=O)N2C(C(=O)O)=C(S[C@H]3CC[S@@+]([O-])C3)S[C@H]12" ) reads 16

Given item "CN(C)[C@@H]1C(O)=C(C(N)=O)C(=O)[C@@]2(O)C(O)=C3C(=O)c4c(O)c(NC(=O)CN5CCCC5)cc(F)c4C[C@H]3C[C@@H]12" , the value recorded as its Relative MIC is 16

====

- Tested on: A. baumannii ATCC 17978 (SEN) and A. baumannii ATCC BAA-1605 (MDR)
- measurementNotes: microbe, parasite or virus in culture
- Format: cell-based, Acinetobacter baumannii
- conditionLabel: Acinetobacter baumannii ATCC 17978 (AB-SEN), ancestor strain
Kindly state MIC of ancestor for each of the entries shown.
Write the numeric value and append its unit.

Note to self: MIC of ancestor of "CN(C)[C@@H]1C(O)=C(C(N)=O)C(=O)[C@@]2(O)C(O)=C3C(=O)c4c(O)c(NC(=O)CN5CCCC5)cc(F)c4C[C@H]3C[C@@H]12" with A. baumannii ATCC 17978 (SEN) and A. baumannii ATCC BAA-1605 (MDR) was 0.0625 µg/mL

Record "Nc1nc(-n2cc(C(=O)O)c(=O)c3cc(F)c(N4CC(O)C4)c(Cl)c32)c(F)cc1F" / A. baumannii ATCC 17978 (SEN) and A. baumannii ATCC BAA-1605 (MDR), MIC of ancestor recorded as 0.0625 µg/mL

Record CN[C@@H]1[C@@H](O[C@H]2O[C@H](CO)[C@@H](N)[C@H](O)[C@H]2O)OC2C[C@@H](N)[C@@H](O[C@H]3[C@H](O)[C@@H](O)[C@H](N)C[C@@H]3N)OC2[C@@H]1O (stereo partly shown) / A. baumannii ATCC 17978 (SEN) and A. baumannii ATCC BAA-1605 (MDR), MIC of ancestor recorded as 4 µg/mL

Short answer on A. baumannii ATCC 17978 (SEN) and A. baumannii ATCC BAA-1605 (MDR) for "C[C@H]1c2cccc(O)c2C(=O)C2=C(O)[C@]3(O)C(=O)C(C(N)=O)=C(O)[C@@H](N(C)C)[C@@H]3[C@@H](O)[C@@H]21" , MIC of ancestor: 0.25 µg/mL

====

- Test system: K. pneumoniae ATCC 10031 (SEN) and K. pneumoniae ATCC 700603 (MDR)
- measurementNotes: Frequency-of-resistance (FoR) assay, relative MIC of mutants
- Assay type: cell-based, Klebsiella pneumoniae
- conditionLabel: Klebsiella pneumoniae, read-out: MIC of evolved line, Klebsiella pneumoniae ATCC 10031 (KP-SEN); evolved line 1
Please respond with reported MIC for every item in the list.
Output spec: scalar in µg/mL, unitless text.

Memo: "COc1c(N2C[C@@H]3CCCN[C@@H]3C2)c(F)cc2c(=O)c(C(=O)O)cn(C3CC3)c12" , reported MIC: 0.25

// sample "O=c1ccc2ncc(=O)n3c2n1C[C@H]3CN1CCC(NCc2cc3c(cn2)OCCC3)CC1" , its MIC was 0.0625

Memo: "Nc1nc(-n2cc(C(=O)O)c(=O)c3cc(F)c(N4CC(O)C4)c(Cl)c32)c(F)cc1F" , reported MIC: 0.0625

Reported MIC for "CN(C)c1cc(CNCC(C)(C)C)c(O)c2c1C[C@H]1C[C@H]3[C@H](N(C)C)C(O)=C(C(N)=O)C(=O)[C@@]3(O)C(O)=C1C2=O" was 32

For CN[C@@H]1[C@@H](O[C@H]2O[C@H](CO)[C@@H](N)[C@H](O)[C@H]2O)OC2C[C@@H](N)[C@@H](O[C@H]3[C@H](O)[C@@H](O)[C@H](N)C[C@@H]3N)OC2[C@@H]1O (stereo partly drawn) the molecule record lists MIC as 16

MIC reading for "CN(C)[C@@H]1C(O)=C(C(N)=O)C(=O)[C@@]2(O)C(O)=C3C(=O)c4c(O)c(NC(=O)CN5CCCC5)cc(F)c4C[C@H]3C[C@@H]12" : 0.5

====

- System: A. baumannii ATCC 17978 (SEN) and A. baumannii ATCC BAA-1605 (MDR)
- measurementNotes: Adaptive laboratory evolution (ALE), relative MIC of evolved lines
- Assay type: cell-based, Acinetobacter baumannii
- conditionLabel: AB-SEN (ATCC 17978); evolved line 8; MIC of evolved line / MIC of ancestor
Kindly supply the reported Relative MIC values for the records listed here.
Quick one: just the number, no unit, thanks!

For this compound ( CN[C@@H]1[C@@H](O[C@H]2O[C@H](CO)[C@@H](N)[C@H](O)[C@H]2O)OC2C[C@@H](N)[C@@H](O[C@H]3[C@H](O)[C@@H](O)[C@H](N)C[C@@H]3N)OC2[C@@H]1O (stereo partly shown) ), measured Relative MIC is 32

Briefly, Relative MIC measured for "Nc1nc(-n2cc(C(=O)O)c(=O)c3cc(F)c(N4CC(O)C4)c(Cl)c32)c(F)cc1F" : 64

Lookup result for "CN(C)[C@@H]1C(O)=C(C(N)=O)C(=O)[C@@]2(O)C(O)=C3C(=O)c4c(O)c(NC(=O)CN5CCCC5)cc(F)c4C[C@H]3C[C@@H]12" ; measured Relative MIC: 64

Data point: "C[C@H]1c2cccc(O)c2C(=O)C2=C(O)[C@]3(O)C(=O)C(C(N)=O)=C(O)[C@@H](N(C)C)[C@@H]3[C@@H](O)[C@@H]21" ; Relative MIC = 32
